Tested on: T24 cell line
Test: Cytotoxicity MTS assay, T24 cell line;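 note: blank control wells received 0.025% DMSO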
Format: cell-based
Details: T24 cell line, 100μM, first assay
For each of the molecules below, state its OD490 Mean.
Could you respond with only the numeric value?

Recall and state the measured OD490 Mean for CCOC(=O)c1c(C2NC(=O)NC(C)=C2C(=O)Nc2ccccc2)[nH]c(C(=O)OC)c1C (stereo not shown) [D10] .
1.1356

Dear colleague, please send me the reported OD490 Mean for CCOC(=O)c1[nH]c(C2NC(=S)NC(C)=C2C(=O)OC)c(C(=O)OCC)c1C (stereo not shown) [D12] when you can.
1.2394

Tell me measured OD490 Mean for CCOC(=O)c1[nH]c(C2NC(=O)NC(C)=C2C(=O)Nc2ccccc2C)c(C(=O)OC)c1C (stereo not shown) [D4] please.
1.4469

Report measured OD490 Mean; entry is CCOC(=O)C1=C(C)NC(=S)NC1c1cccc(O)c1 (stereo not shown) [Monastrol, monastrol, reference compound]
1.3979

Quote OD490 Mean reported for CCOC(=O)c1c(C2NC(=O)NC(C)=C2C(=O)Nc2ccccc2OC)[nH]c(C(=O)OC)c1C (stereo not shown) [D1] please.
1.4345

Please report OD490 Mean for the following molecule: CCOC(=O)c1[nH]c(C2NC(=O)NC(C)=C2C(=O)Nc2ccccc2OC)c(C(=O)OC)c1C (stereo not shown) [D3]
1.3750

Answer with the recorded OD490 Mean of COC(=O)c1[nH]c(C2NC(=S)NC(C)=C2C(=O)c2ccccc2)c(C(=O)OC)c1C (stereo not shown) [D14] only.
1.4227

Tell me OD490 Mean reported for CCOC(=O)c1c(C2NC(=O)NC(C)=C2C(=O)Nc2ccccc2C)[nH]c(C(=O)OC)c1C (stereo not shown) [D2]
1.5388

Answer with the recorded OD490 Mean for the molecule listed here: CCOC(=O)c1[nH]c(C2NC(=O)NC(C)=C2C(=O)Nc2ccc(Cl)cc2)c(C(=O)OCC)c1C (stereo not shown) [D7]
1.4451

Provide only the value of recorded OD490 Mean for CCOc1ccccc1C1NC(=S)NC(C)=C1C(=O)Nc1ccc(Cl)cc1 (stereo not shown) [C9]
1.1300

* * *

Consider the following molecules; for each one, report its OD490 values, Mean.
System: L929 cell line
Test: Cytotoxicity MTS assay, L929 cell line
Assay type: cell-based
Conditions: L929 cell line, 0.5μM, second assay
Form rule: numeric answer, no unit written next to it.

Answer with the recorded OD490 values, Mean for the molecule listed here: CCOc1ccccc1C1NC(=S)NC(C)=C1C(=O)Nc1ccc(Cl)cc1 (centres unmarked)
1.7414

Given the molecule CCOC(=O)c1[nH]c(C2NC(=S)NC(C)=C2C(=O)OC)c(C(=O)OCC)c1C (centres unmarked) , write its reported OD490 values, Mean.
1.4730

Return OD490 values, Mean (reported value) for this molecule: CCOC(=O)c1c(C2NC(=O)NC(C)=C2C(=O)Nc2ccccc2OC)[nH]c(C(=O)OC)c1C (centres unmarked) [D1]
1.7900

Tell me OD490 values, Mean reported for CCOC(=O)c1[nH]c(C2NC(=O)NC(C)=C2C(=O)Nc2ccc(Cl)cc2)c(C(=O)OCC)c1C (centres unmarked)
1.6723

For the molecule CCOC(=O)c1[nH]c(C2NC(=O)NC(C)=C2C(=O)Nc2ccccc2C)c(C(=O)OC)c1C (centres unmarked) , report OD490 values, Mean.
1.6699

* * *

Tested on: T24 cell line
Assay: Cytotoxicity MTS assay, T24 cell line;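 note: blank control wells received 0.025% DMSO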
Type: cell-based
Conditions: T24 cell line, 100μM, third assay
Please provide measured OD490 Well 1 for the entries that follow.
Keep the answer to the number alone.

Give OD490 Well 1 for the following compound: CCOC(=O)c1c(C2NC(=O)NC(C)=C2C(=O)Nc2ccccc2OC)[nH]c(C(=O)OC)c1C (stereo not shown) [D1]
1.3553

Using known records, supply OD490 Well 1 for CCOc1ccccc1C1NC(=S)NC(C)=C1C(=O)Nc1ccc(Cl)cc1 (stereo not shown)
1.0120

State its OD490 Well 1 for this compound: CCOC(=O)c1[nH]c(C2NC(=O)NC(C)=C2C(=O)Nc2ccccc2C)c(C(=O)OC)c1C (stereo not shown)
1.2539

Consider the compound CCOC(=O)C1=C(C)NC(=S)NC1c1cccc(O)c1 (stereo not shown) [Monastrol, monastrol, reference compound] and give its recorded OD490 Well 1.
1.4550

* * *

Test system: Hela cell line
Experiment: Cytotoxicity MTS assay, Hela cell line;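 note: blank control wells received 0.025% DMSO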
Format: cell-based
Conditions: Hela cell line, MTS, 10μM, first assay
metric.name: OD490 value, Well 2
Give only the figure.

Give reported OD490 value, Well 2 for CCOC(=O)c1c(C2NC(=O)NC(C)=C2C(=O)Nc2ccccc2C)[nH]c(C(=O)OC)c1C (centres unmarked) [D2] (Hela cell line)
2.7280

Specify the recorded OD490 value, Well 2 for CCOC(=O)c1[nH]c(C2NC(=O)NC(C)=C2C(=O)Nc2ccc(Cl)cc2)c(C(=O)OCC)c1C (centres unmarked) , system: Hela cell line.
2.4926

Give OD490 value, Well 2; test system Hela cell line; compound CCOC(=O)c1c(C2NC(=O)NC(C)=C2C(=O)Nc2ccccc2OC)[nH]c(C(=O)OC)c1C (centres unmarked) [D1]
2.5603

Find the measured OD490 value, Well 2 of CCOC(=O)c1[nH]c(C2NC(=S)NC(C)=C2C(=O)OC)c(C(=O)OCC)c1C (centres unmarked) with Hela cell line as test system.
2.6029

Check Hela cell line data and give OD490 value, Well 2 for CCOc1ccccc1C1NC(=S)NC(C)=C1C(=O)Nc1ccc(Cl)cc1 (centres unmarked) .
2.3778

Recall the reported OD490 value, Well 2 of CCOC(=O)c1c(C2NC(=O)NC(C)=C2C(=O)Nc2ccccc2)[nH]c(C(=O)OC)c1C (centres unmarked) on Hela cell line and write it down.
2.4384

Jot down OD490 value, Well 2 (Hela cell line) of CCOC(=O)c1[nH]c(C2NC(=O)NC(C)=C2C(=O)Nc2ccccc2C)c(C(=O)OC)c1C (centres unmarked) .
2.7562

# return OD490 value, Well 2 of CCOC(=O)c1[nH]c(C2NC(=O)NC(C)=C2C(=O)Nc2ccccc2OC)c(C(=O)OC)c1C (centres unmarked) (system: Hela cell line)
2.6311

* * *

Test system: Caco-2 cell line
Experiment: Cytotoxicity MTS assay, Caco-2 cell line
Assay type: cell-based
Details: 25μM; third assay; Caco-2 cell line
Hi, to clarify the labels: MET covers OD490 Well 1 from 0.6 upward, NOT MET covers anything below 0.6.

Does the reported OD490 Well 1 for CCOC(=O)C1=C(C)NC(=S)NC1c1cccc(O)c1 (stereo not drawn) [Monastrol, monastrol, reference compound] fall at or above the 0.6 mark?
NOT MET

Dear colleague, could you confirm whether CCOc1ccccc1C1NC(=S)NC(C)=C1C(=O)Nc1ccc(Cl)cc1 (stereo not drawn) has OD490 Well 1 at or above 0.6?
MET

Is the recorded value of OD490 Well 1 equal to or greater than 0.6 for this compound? CCOC(=O)c1c(C2NC(=O)NC(C)=C2C(=O)Nc2ccccc2C)[nH]c(C(=O)OC)c1C (stereo not drawn) [D2]
MET

Check the entry COC(=O)c1[nH]c(C2NC(=S)NC(C)=C2C(=O)c2ccccc2)c(C(=O)OC)c1C (stereo not drawn) : does OD490 Well 1 equal or exceed 0.6?
NOT MET

// inclusive: OD490 Well 1 at least 0.6? input: CCOC(=O)c1[nH]c(C2NC(=O)NC(C)=C2C(=O)Nc2ccccc2OC)c(C(=O)OC)c1C (stereo not drawn)
MET

* * *

Assign OD490 Well 1 to each entry below.
Test system: Caco-2 cell line
Assay: Cytotoxicity MTS assay, Caco-2 cell line
Type: cell-based
Conditions: 25μM; third assay; Caco-2 cell line
Description: The positive compounds (IC50 < 100 μM) obtained from the primary Eg5 motor protein ATPase assay were tested for antiproliferative activity in vitro against Caco-2 cell line, Hela cell line, L929 cell line and T24 cell line by performing MTS assay. Cells were introduced into 96-well plates at a density of 1000 cells per well. After 24 h incubation, the cells were exposed with compounds at final concentrations ranging from 0.5 to 100 µM for 24 h. […]

Consider the compound CCOC(=O)c1c(C2NC(=O)NC(C)=C2C(=O)Nc2ccccc2)[nH]c(C(=O)OC)c1C (stereo not shown) and give its recorded OD490 Well 1.
0.5365

Tell me measured OD490 Well 1 for CCOC(=O)c1[nH]c(C2NC(=O)NC(C)=C2C(=O)Nc2ccc(Cl)cc2)c(C(=O)OCC)c1C (stereo not shown) please.
0.5221

Identify measured OD490 Well 1 corresponding to CCOC(=O)c1[nH]c(C2NC(=O)NC(C)=C2C(=O)Nc2ccccc2C)c(C(=O)OC)c1C (stereo not shown)
0.5123

Identify OD490 Well 1 associated with the compound CCOC(=O)c1c(C2NC(=O)NC(C)=C2C(=O)Nc2ccccc2OC)[nH]c(C(=O)OC)c1C (stereo not shown) [D1]
0.5903
